Hey, just so you know, these numbers are from ChEMBL document CHEMBL3885861.

Species on record: Rattus norvegicus
Assay: Open TG-GATES - Regimen: Daily Repeat
Assay type: toxicity, organism-based, Sprague-Dawley
Design: regimen Daily Repeat, gender Male, age 6 weeks
Conditions: in vivo, po, 0 mg/kg, […], tissue Blood, route gavage, dose level Control, time 7 day
The following compounds are shown together with reported MCV values.
Field: numeric (fL). Do not append units.

Before answering, review these 10 worked examples.
- compound: "CCCCc1oc2ccccc2c1C(=O)c1cc(I)c(OCCN(CC)CC)c(I)c1"
  unitsText: "fL"
  MCV: 61.9
- compound: "CC1=C(CC(=O)O)c2cc(F)ccc2/C1=C\\c1ccc([S+](C)[O-])cc1 (stereo unspecified)"
  unitsText: "fL"
  MCV: 62.5
- compound: "CN(C)C(=N)N=C(N)N"
  unitsText: "fL"
  MCV: 64.1
- compound: "CCC1(c2ccccc2)C(=O)NC(=O)NC1=O"
  unitsText: "fL"
  MCV: 65.5
- compound: "O=NN(CCCl)C(=O)NC1CCCCC1"
  unitsText: "fL"
  MCV: 65.2
- compound: "OCCOCCN1CCN(C(c2ccccc2)c2ccc(Cl)cc2)CC1 (stereo unspecified) [HYDROXYZINE]"
  unitsText: "fL"
  MCV: 63.9
- compound: "CN(C)CCC=C1c2ccccc2COc2ccccc21 [DOXEPIN]"
  unitsText: "fL"
  MCV: 60
- compound: "CC(C)N(CCC(C(N)=O)(c1ccccc1)c1ccccn1)C(C)C (stereo unspecified) [DISOPYRAMIDE]"
  unitsText: "fL"
  MCV: 62.4
- compound: "CCc1oc2ccccc2c1C(=O)c1cc(Br)c(O)c(Br)c1"
  unitsText: "fL"
  MCV: 63.3
- compound: "ClC(Cl)(Cl)Cl [CARBON TETRACHLORIDE]"
  unitsText: "fL"
  MCV: 61.9

Next up:
[ask] What value of measured MCV is listed for CC[C@H]1[C@@H]2C[C@H]3[C@@H]4N(C)c5ccccc5[C@]45C[C@@H]([C@@H]2[C@H]5O)N3[C@@H]1O ?
[reply] 63.3
